Test: Tmax in Sprague-Dawley rat at 3 mg/kg, iv by LC/MS/MS analysis
Format: ADME, organism-based
Set-up: dose 3 mg/kg, route intravenous
Settings: in vivo
VALUE TYPE: Tmax (h)
Unit h implied. Number only.

Look up and state reported Tmax for `N[C@@]1(C(=O)O)C[C@@H](F)[C@H]2[C@H](C(=O)O)[C@H]21`
0

---

Assay: Half life in Sprague-Dawley rat at 1 mg/kg, po by LC/MS/MS analysis
Type: ADME, organism-based
Design: dose 1 mg/kg, route oral
Conditions: in vivo
VALUE TYPE: half-life (h)
Give the quantity in h, number only.

Let me know recorded half-life for `N[C@@]1(C(=O)O)C[C@@H](F)[C@H]2[C@H](C(=O)O)[C@H]21` , thanks.
2.7
